target-entity: human GPR40 receptor (Homo sapiens, UniProt O14842)
Sequence (O14842 whole entry): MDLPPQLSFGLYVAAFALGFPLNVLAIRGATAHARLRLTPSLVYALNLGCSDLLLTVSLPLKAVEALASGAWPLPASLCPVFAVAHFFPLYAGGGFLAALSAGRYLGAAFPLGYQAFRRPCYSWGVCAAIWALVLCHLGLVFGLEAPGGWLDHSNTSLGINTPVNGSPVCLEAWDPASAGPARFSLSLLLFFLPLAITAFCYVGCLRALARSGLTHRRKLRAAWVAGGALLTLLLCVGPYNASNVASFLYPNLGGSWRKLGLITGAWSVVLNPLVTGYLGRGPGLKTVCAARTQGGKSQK
measurement-protocol: IP1 accumulation measurements using the IPOne assay system in 1321N1 cells stably expressing human GPR40 receptor
condition-description: 1321N1 cells expressing human GPR40, 1 hour stimulation at 37° C., Table 2
Checkbox rule: EC50 lower than 40 nM = 1.0; EC50 not lower than 40 nM = 0.0.

Prompt line: In the record for O=C(O)c1ccc(Oc2ccc(F)c3c2CC[C@H]3Oc2ccc([C@H]3C[C@@H]3C(=O)O)cc2)cc1 , is EC50 less than 40 nM?
Response line: 0.0

Prompt line: Could you do the same for O=C(O)[C@H]1C[C@@H]1c1ccc(O[C@@H]2CCc3c(Oc4ccc(OCC5(O)CCOCC5)cc4)ccc(F)c32)cc1 , please?
Response line: 1.0

Prompt line: Could you do the same for Cn1ncc2ccc(Oc3ccc(F)c4c3CC[C@H]4Oc3ccc([C@H]4C[C@@H]4C(=O)O)cc3)cc21 , please?
Response line: 1.0

Prompt line: Could you do the same for O=C(O)C1CC1c1ccc(O[C@@H]2CCc3c2cccc3S(=O)(=O)c2ccccc2)cc1 (stereo partly shown) , please?
Response line: 1.0

Next:
Prompt line: In the record for CC(C)(O)CNC(=O)c1ccc(Oc2ccc(F)c3c2CC[C@H]3Oc2ccc([C@H]3C[C@@H]3C(=O)O)cc2)cc1 , is EC50 less than 40 nM?
Response line: 1.0

Prompt line: Could you do the same for N#Cc1ccc2c(c1Cc1ccc(Cl)nc1)CC[C@H]2Oc1ccc([C@H]2C[C@@H]2C(=O)O)cc1 , please?
Response line: 0.0

Prompt line: Could you do the same for CN(CCO)C(=O)c1ccc(Oc2ccc(F)c3c2CC[C@H]3Oc2ccc([C@H]3C[C@@H]3C(=O)O)cc2)cc1 , please?
Response line: 0.0

====

target-entity: human GPR40 receptor (Homo sapiens, UniProt O14842)
measurement-protocol: IP1 accumulation measurements using the IPOne assay system in 1321N1 cells stably expressing human GPR40 receptor
condition-description: 1321N1 cells expressing human GPR40, 1 hour stimulation at 37° C., Table 2
This listing pairs molecules with measured pEC50.
Please keep in mind that pEC50 is minus log10 of the molar concentration; only the number is needed.

Prompt line: Report pEC50 for Cc1cccc(C)c1S(=O)(=O)c1cccc2c1CC[C@H]2Oc1ccc([C@H]2C[C@@H]2C(=O)O)cc1 [Example 42] please.
Response line: 8.40

Prompt line: Could you do the same for O=C(NCC1CC1)c1ccc(Oc2ccc(F)c3c2CC[C@H]3Oc2ccc([C@H]3C[C@@H]3C(=O)O)cc2)cc1 [Example 18] , please?
Response line: 8.22

Prompt line: Could you do the same for O=C(NC1CCOCC1)c1ccc(Oc2ccc(F)c3c2CC[C@H]3Oc2ccc([C@H]3C[C@@H]3C(=O)O)cc2)cc1 [Example 21] , please?
Response line: 8.52

Prompt line: Could you do the same for O=C(O)[C@H]1C[C@@H]1c1ccc(O[C@@H]2CCc3c(Oc4ccc(OCc5ccccc5)c(F)c4)ccc(F)c32)cc1 [Example 3] , please?
Response line: 8.30

Prompt line: Could you do the same for Cc1nc2ccc(Oc3ccc(F)c4c3CC[C@H]4Oc3ccc([C@H]4C[C@@H]4C(=O)O)cc3)cc2s1 [Example 37] , please?
Response line: 8.70

Next:
Prompt line: Report pEC50 for Cc1nc(-c2ccc(Oc3ccc(F)c4c3CC[C@H]4Oc3ccc([C@H]4C[C@@H]4C(=O)O)cc3)cc2)no1 [Example 35] please.
Response line: 8.52

Prompt line: Could you do the same for O=C(O)[C@H]1C[C@@H]1c1ccc(O[C@@H]2CCc3c(Oc4ccc(C(=O)N5CCOCC5)cc4)ccc(F)c32)cc1 [Example 22] , please?
Response line: 7.57
